assayed system: UniProtKB Q96GD4
Sequence (Q96GD4 whole entry): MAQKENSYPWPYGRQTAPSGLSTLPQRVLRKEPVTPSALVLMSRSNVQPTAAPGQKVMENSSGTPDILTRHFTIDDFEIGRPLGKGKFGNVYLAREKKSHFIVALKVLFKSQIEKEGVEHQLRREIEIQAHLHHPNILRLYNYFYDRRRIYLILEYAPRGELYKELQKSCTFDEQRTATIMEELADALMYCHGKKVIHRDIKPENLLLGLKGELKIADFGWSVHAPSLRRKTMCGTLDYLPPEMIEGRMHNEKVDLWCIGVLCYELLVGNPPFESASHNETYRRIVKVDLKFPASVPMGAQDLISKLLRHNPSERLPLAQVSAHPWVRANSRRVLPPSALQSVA
pIC50: −log10 of the molar value.
observed property: pIC50

>>> val("O=C1C=CC(=O)c2c(O)ccc(O)c21 [NAPHTHAZALIN]")
6.46
>>> val("O=C1C=CC(=O)c2c(O)cccc21 [JUGLONE]")
6.21
>>> val("O=C1C=C(Cl)C(=O)c2c(O)cccc21")
5.74
>>> val("CC1=C(Br)C(=O)c2ccccc2C1=O")
6.02
>>> val("O=C1c2ccccc2C(=O)c2c(O)c(CCl)cc(O)c21")
6.39

====

Tested on: HCT-116
test description: Antiproliferative activity against human HCT-116 cells measured after 72 hrs by SRB assay
Type: functional
observed property: log10 GI50 (log10 of the value in µM)

>>> val("O=C1c2ccccc2C(=O)c2c(O)c(CCl)cc(O)c21")
-0.66
>>> val("CC1=CC(=O)c2cccc(O)c2C1=O")
-0.34
>>> val("CC1(C)CCC2=C(O1)c1ccccc1C(=O)C2=O")
1.11
>>> val("COc1ccc2c(c1)C(=O)C=CC2=O")
0.92
>>> val("O=C1C=CC(=O)c2c(O)cccc21")
0.62
>>> val("O=C1C=C(Cl)C(=O)c2c(O)cccc21")
0.61
>>> val("O=C1C=CC(=O)c2c(O)ccc(O)c21")
-0.80
>>> val("CC=CCC1=C(O)C(=O)c2ccccc2C1=O")
1.62
>>> val("CC1=C(Br)C(=O)c2ccccc2C1=O")
0.53
>>> val("COC(=O)/C=C(/CC1=C(CCC(=O)CC2(C)OCCO2)C(=O)c2ccccc2C1=O)OC")
1.33
>>> val("CC1=CC(=O)c2c(O)cc(C)c(C(=O)C(Cl)Cl)c2C1=O")
0.63

====

Tested on: K562
test description: Antiproliferative activity against human K562 cells measured after 72 hrs by SRB assay
Assay type: functional
Below, each entry is listed with its recorded GI50.
observed property: GI50 (µM)

>>> val("O=C1C=C(Cl)C(=O)c2c(O)cccc21")
3.2
>>> val("CC1=CC(=O)c2c(O)cc(C)c(C(=O)C(Cl)Cl)c2C1=O")
3.7
>>> val("COC(=O)/C=C(/CC1=C(CCC(=O)CC2(C)OCCO2)C(=O)c2ccccc2C1=O)OC")
9.7
>>> val("O=C1C=CC(=O)c2c(O)ccc(O)c21")
1.7
>>> val("CC1=C(Br)C(=O)c2ccccc2C1=O")
3.4
>>> val("O=C1c2ccccc2C(=O)c2c(O)c(CCl)cc(O)c21")
2.8
>>> val("COc1ccc2c(c1)C(=O)C=CC2=O")
2.9
>>> val("CC1=CC(=O)c2cccc(O)c2C1=O")
1.3
>>> val("CC1(C)CCC2=C(O1)c1ccccc1C(=O)C2=O")
41

====

Below, each entry is listed with its recorded GI50.
Test system: HCC1954
test description: Antiproliferative activity against human HCC1954 cells measured after 72 hrs by SRB assay
Assay type: functional
observed property: GI50 (nM)

>>> val("O=C1C=CC(=O)c2c(O)cccc21")
6440
>>> val("CC1=CC(=O)c2c(O)cc(C)c(C(=O)C(Cl)Cl)c2C1=O")
1600
>>> val("CC1=CC(=O)c2cccc(O)c2C1=O")
340
>>> val("O=C1C=C(Cl)C(=O)c2c(O)cccc21")
990
